Experiment: Reaction with L-lysine (amino acids) to mimic skin binding; colour and UV-VIS of the dye formed
Conditions: Additional Color Combinations
Experimental Endpoint: color produced upon reaction with amino acids

Molecule	Data Value
COC(=O)C1=COC(O)[C@@H]2C(/C=C/c3ccccc3)=CC[C@H]12 (stereo partly drawn) [Compound 7]	vibrant red
COC(=O)C1=COC(O)[C@@H]2C(/C=C/c3ccc([N+](=O)[O-])cc3)=CC[C@H]12 (stereo partly drawn) [Compound 9]	vibrant red
CCOC(=O)C(=CC1=CCC2C(C(=O)OC)=COC(OC(C)=O)C12)C(=O)OCC (stereo not drawn) [Compound 11]	vibrant red
